# pIC50 listing for each entry below
# tested on: human TRPV4 (Homo sapiens (Human), UniProt Q9HBA0)
# Sequence (Q9HBA0 whole entry): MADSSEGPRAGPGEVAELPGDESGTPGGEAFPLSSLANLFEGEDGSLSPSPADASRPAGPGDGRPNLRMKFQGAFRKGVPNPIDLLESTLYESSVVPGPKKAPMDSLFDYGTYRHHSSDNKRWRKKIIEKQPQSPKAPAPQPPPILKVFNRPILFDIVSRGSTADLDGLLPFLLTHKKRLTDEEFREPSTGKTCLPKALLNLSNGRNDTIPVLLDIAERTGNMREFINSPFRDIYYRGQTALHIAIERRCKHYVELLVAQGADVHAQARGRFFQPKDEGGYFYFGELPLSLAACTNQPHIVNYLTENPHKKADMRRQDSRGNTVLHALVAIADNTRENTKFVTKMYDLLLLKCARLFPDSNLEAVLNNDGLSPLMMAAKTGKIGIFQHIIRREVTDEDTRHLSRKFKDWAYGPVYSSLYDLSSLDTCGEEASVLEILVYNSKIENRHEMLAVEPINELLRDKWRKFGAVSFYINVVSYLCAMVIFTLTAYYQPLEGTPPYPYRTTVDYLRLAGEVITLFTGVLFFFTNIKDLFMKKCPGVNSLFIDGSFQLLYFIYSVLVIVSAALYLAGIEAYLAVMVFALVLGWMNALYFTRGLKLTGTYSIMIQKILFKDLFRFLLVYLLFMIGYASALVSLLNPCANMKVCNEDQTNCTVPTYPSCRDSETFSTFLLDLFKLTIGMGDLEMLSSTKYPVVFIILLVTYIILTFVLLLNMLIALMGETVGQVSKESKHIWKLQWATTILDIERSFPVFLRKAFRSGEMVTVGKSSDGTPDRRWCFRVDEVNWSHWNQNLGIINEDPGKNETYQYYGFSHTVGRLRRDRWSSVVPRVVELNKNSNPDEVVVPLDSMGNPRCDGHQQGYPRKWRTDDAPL
# procedure summary: Radiometric calcium selectivity assay, CHO cells expressing human TRPV4 (4α-phorbol 12,13-didecanoate)
# conditions used: read-out: IC50 values hTRPV4
# Method: For selectivity screening, CHO cells stably expressing human TRPV1, human TRPV3, human TRPV4, or human TRPM8 were generated in-house and maintained in DMEM F-12 supplemented with 10% FBS and G418. All the cell types were cultured at 37° C. in humidified air containing 5% CO2. Radiometric calcium assay was performed as described above with some minor modifications. […] Radioactivity in the lysate was measured in Packard Top count after addition of liquid scintillant.
pIC50: −log10 of the molar value.

# compound, pIC50
records = [
    ("Cn1c(=O)c2c(CC(=O)Nc3nc(-c4cccc(Cl)c4F)cs3)cccc2n(C)c1=O [Compound 25]", "< 6.00"),
    ("Cn1c(=O)c2c(ccn2CC(=O)Nc2nc(-c3ccc(C(F)(F)F)c(F)c3)cs2)n(C)c1=O [Compound 36]", "< 5.00"),
    ("Cc1oc2c(c1CC(=O)Nc1nc(-c3ccc(Cl)c(C(F)(F)F)c3)cs1)c(=O)n(C)c(=O)n2C [Compound 71]", "< 5.00"),
    ("Cn1c(=O)c2c(CC(=O)Nc3nc(-c4ccc(C(F)(F)F)c(F)c4)cs3)coc2n(C)c1=O [Compound 54]", "< 6.00"),
    ("Cn1c(=O)c2c(ccn2CC(=O)Nc2nc(-c3cc(Cl)c(OCCC(F)(F)F)c(Cl)c3)cs2)n(C)c1=O [Compound 35]", "< 5.00"),
    ("CN1C(=O)c2c(ncn2CC(=O)Nc2nc(-c3ccc(Br)cc3)cs2)N2CCN=C12 [Compound 1]", "< 5.00"),
    ("Cc1oc2c(c1CC(=O)Nc1nc(-c3cc(F)cc(C(F)(F)F)c3)cs1)c(=O)n(C)c(=O)n2C [Compound 61]", "< 5.00"),
]

Now for another entry.
For the compound Cn1nc2c(c1CC(=O)Nc1nc(-c3ccc(C(F)(F)F)c(F)c3)cs1)c(=O)n(C)c(=O)n2C [Compound 38] , what pIC50 is on record? < 6.00
